# systemTested: T1, Jun bZIP-ΔLZ (human, UniProt P05412 246-284)
# T1 chain: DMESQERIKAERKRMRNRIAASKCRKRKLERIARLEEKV
# protocolDescription: fluorescence anisotropy; monomer; Stopped-flow at 25 C; assay buffer not stated in the material (protein storage: 10 mM MES pH 6.5 or, for the forced-monomer bZIP-ΔLZ prep, 10 mM HEPES pH 7.4, with 150 mM NaCl, 10 mM MgCl2; 0.05% Tween-20 in the MES buffer)
# conditionDescription: protein: recombinant; tags: N-terminal G left after TEV cleavage; label: 5' Alexa Fluor 488; blunt
measurementType: Kd

>>> df
                                     binder   value
0  Alexa Fluor 488 target for Jun, JunD, Fos (dsDNA) DNA 1: GGATGAGTCATTGG DNA 2: CCAATGACTCATCC  220 nM
